test: small-molecule binders of probe aNOTCH2, primary screen, biochemical, small-molecule microarray, 635/667 nm fluorescence (AID 1121); details: higher = more signal;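 further: score merges feature fluorescence read at 667 nm with its signal to noise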
readout: composite z-score
// return a plain number; no unit text

Request: Record request: composite z-score value, item `CCCCC=C[C@@H](NC(=O)c1ccccc1)c1ccccc1`
Response: -0.0785

Request: Entry `COCCOC(=O)N1C(=O)[C@@]2(c3cc(C#CC4(O)CCCCCC4)ccc31)[C@H](c1ccc(OCCO)cc1)N1[C@H](c3ccccc3)[C@H](c3ccccc3)OC(=O)[C@H]1[C@@H]2C(=O)Nc1nc2ccccc2s1` : reported composite z-score = ?
Response: -0.0009

Request: Please look up its composite z-score: `COC(=O)[C@@]1(Cc2ccc(F)cc2)[C@H]2c3cc(C(=O)N(C)C)n(Cc4ccc(O)c(OC)c4)c3C[C@H]2CN1C(=O)c1ccccc1`
Response: -0.127

Request: Return reported composite z-score; argument: CC(C)C(CO)N1C(=O)[C@@H]2[C@H]3C(=O)OCC=C[C@H]3OC23C=CCN(C(C)(C)C)C(=O)[C@@H]13 (some centres undefined)
Response: -0.168

###

system: Chordin-like protein 2 (CHRDL2); assay: CHRDL2 small-molecule binders, primary screen, biochemical, small-molecule microarray, 635 nm fluorescence (AID 1126); details: small-molecule microarray binding, fluorescence 635 nm; higher = more signal;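 further: printed compound slides probed with Chrdl2 protein at 4 µg/mL for 1 h at 4 C; score merges 667 nm emission intensity with signal to noise over three replicate slides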
readout: composite z-score
Returns: the value as a bare number; no unit string appended.

Request: Give the reported composite z-score for `COC(=O)C(CC#Cc1ccc2c(c1)[C@]1(C(=O)N2)[C@H](c2ccc(O)cc2)N2[C@H](c3ccccc3)[C@H](c3ccccc3)OC(=O)[C@H]2[C@@H]1C(=O)N1CCCCCCC1)C(=O)OC` (system: Chordin-like protein 2 (CHRDL2)).
Response: 1.13

Request: Tell me reported composite z-score for `COCCOC(=O)N1C(=O)[C@@]2(c3cc(C#CCC(C(=O)OC)C(=O)OC)ccc31)[C@H](c1ccc(OCCO)cc1)N1[C@H](c3ccccc3)[C@H](c3ccccc3)OC(=O)[C@H]1[C@@H]2C(=O)Nc1nc2ccccc2s1` , tested with Chordin-like protein 2 (CHRDL2).
Response: 0.219

Request: Query the reported composite z-score for Chordin-like protein 2 (CHRDL2); item: `CCOC(=O)C1=CC[C@@H](c2ccccc2)N(S(=O)(=O)c2ccc(C)cc2)[C@H]1c1cccc(OC)c1`
Response: -0.0412

Request: // fetch Chordin-like protein 2 (CHRDL2) composite z-score for CCOC(=O)C1=CCC(c2ccco2)N(S(=O)(=O)c2ccc(C)cc2)C1 (stereo not given)
Response: 0.388

Request: Report composite z-score for COc1cc(NN2C(C(O)c3ccccc3)C=CC3C(=O)N(C)C(=O)C32)cc(OC)c1OC (stereo not given) tested on Chordin-like protein 2 (CHRDL2).
Response: -0.179

Request: State its composite z-score on Chordin-like protein 2 (CHRDL2): COC(=O)C1N=C(c2ccc(OCCCO)cc2)N(c2ccccc2)O1 (stereo not given)
Response: 0.236

Request: Lookup: composite z-score / Chordin-like protein 2 (CHRDL2) / O=C1C2C=CC(C(O)c3ccco3)N(Nc3ccccc3)C2C(=O)N1c1ccccc1 (stereo not given)
Response: -0.727

Request: Entry `CCOC(=O)C[C@H]1[C@H](OC(=O)c2ccccc2-c2ccccc2)[C@@H](NC(=O)c2ccc3ccccc3n2)c2cc(OCCCO)ccc2N1C(=O)c1ccccc1` , system Chordin-like protein 2 (CHRDL2): what composite z-score was measured?
Response: 0.374

Request: Hi! What's the reported composite z-score for `C=C[C@@H](OC)[C@H](OC(=O)Nc1ccc(SC)cc1)c1ccc(OCCO)cc1` on Chordin-like protein 2 (CHRDL2)?
Response: 0.207

Request: Hello, I am looking for reported composite z-score with Chordin-like protein 2 (CHRDL2) for `[N-]=[N+]=Nc1ccccc1C[C@]1(C(=O)NCc2ccccc2)COC(c2ccc(OCCCO)cc2)=N1` . Could you help?
Response: -0.362

Request: Hi! What's the reported composite z-score for `O=C1O[C@H](c2ccccc2)[C@H](c2ccccc2)N2[C@H]1[C@@H](C(=O)N1CCCCCCC1)[C@]1(C(=O)Nc3ccc(C#CC4(O)CCCCCC4)cc31)[C@H]2c1ccccc1OCCO` on Chordin-like protein 2 (CHRDL2)?
Response: 1.73

Request: Item `C=C[C@@H](OC)[C@H](OC(=O)Nc1ccc(OC)cc1)c1ccc(OC)c(O)c1` with Chordin-like protein 2 (CHRDL2) - composite z-score?
Response: -0.96

Request: // map `COc1ccc([Si](C)(C)[C@@H]2[C@@H](CC(=O)N3Cc4ccccc4C[C@H]3CO)O[C@]3(C(=O)N(Cc4ccc(N5CCC5=O)cc4)c4ccccc43)[C@H]2C)cc1` to recorded composite z-score (system: Chordin-like protein 2 (CHRDL2))
Response: 1.19

Request: Record lookup: for Chordin-like protein 2 (CHRDL2), what composite z-score belongs to `C=C(/C(=C/C[C@@H](OC(C)=O)c1ccc(CO)o1)c1cc(C(=O)OC)ccc1OC)C(C)C` ?
Response: 0.0347

Request: What measured composite z-score is associated with CC(C)C(CO)N1C(=O)[C@@H]2[C@H]3C(=O)OCC=C[C@H]3OC23C=CCN(C(C)(C)C)C(=O)[C@@H]13 (stereo not given in full) on Chordin-like protein 2 (CHRDL2)?
Response: -0.109

###

I'd appreciate it if you could supply composite z-score values for the items below.
target: Concanavalin-A (Canavalia ensiformis); assay: ConA small-molecule binders, primary screen, artefact control for SMM control protein annotation, biochemical, small-molecule microarray, Alexa647 label, 635 nm (AID 1127); details: ConA-A647 binding fluorescence, higher = more signal;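 further: z combines 667 nm emission intensity with signal-to-noise across three replicate slides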

Request: So what does the record say about composite z-score for `C=C(/C(=C/C[C@H](OC(=O)c1ccncc1)c1cccc(OCCO)c1)c1cnc2ccccc2c1)C(C)C` ?
Response: 0.898

Request: I would be grateful if you could share the reported composite z-score for COc1ccc(C(O)C2C=CC3C(=O)N(c4ccccc4)C(=O)C3N2Nc2ccccc2F)cc1 (centres undefined) .
Response: 0.515

Request: May I ask what composite z-score has been recorded for COc1cc2c(cc1O)C(c1cccs1)N(Cc1sc3ccccc3c1Cl)CC2 (centres undefined) ?
Response: 1.07

Request: Form field: reported composite z-score of `COCCOC(=O)N1C(=O)[C@@]2(c3cc(C#Cc4ccc(OC)cc4)ccc31)[C@H](c1ccc(OCCO)cc1)N1[C@H](c3ccccc3)[C@H](c3ccccc3)OC(=O)[C@H]1[C@@H]2C(=O)Nc1nc2ccccc2s1`
Response: 1.13

###

biological target: Torsin-1A-interacting protein 2 (Homo sapiens) (UniProt Q8NFQ8); assay: LULL1 binders on small-molecule microarray, primary screen, cell lysate, human LULL1 lysate, 635/667 nm fluorescence (AID 1092); settings: hLULL1 lysate binding, 635 nm fluorescence, higher = more signal;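 further: probe is lysate of COS7 cells overexpressing human LULL1; score merges per-feature 667 nm fluorescence with signal-to-noise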
Sequence (Q8NFQ8 whole entry, looked up): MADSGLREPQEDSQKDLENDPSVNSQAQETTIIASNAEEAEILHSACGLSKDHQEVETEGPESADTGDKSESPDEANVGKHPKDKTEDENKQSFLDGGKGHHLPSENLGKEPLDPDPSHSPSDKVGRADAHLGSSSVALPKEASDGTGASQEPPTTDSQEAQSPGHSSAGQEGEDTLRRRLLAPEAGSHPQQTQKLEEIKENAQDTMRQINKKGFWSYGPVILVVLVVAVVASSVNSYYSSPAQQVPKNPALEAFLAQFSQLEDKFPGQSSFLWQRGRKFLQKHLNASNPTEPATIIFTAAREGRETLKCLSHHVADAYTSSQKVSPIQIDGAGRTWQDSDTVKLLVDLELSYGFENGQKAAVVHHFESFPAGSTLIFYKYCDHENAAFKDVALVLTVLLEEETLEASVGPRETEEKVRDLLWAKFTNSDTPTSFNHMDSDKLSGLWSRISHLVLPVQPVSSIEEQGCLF
Decision: composite z-score compared against 3; not below it gives Met, below it gives Not met.

Request: Quick check, composite z-score >= 3? `CN(C)C(=O)[C@]1(CCS(=O)(=O)c2ccccc2)N=C(c2ccc(OCCCO)cc2)O[C@@H]1c1ccccc1`
Response: Met

Request: Check this compound for composite z-score at or above 3: `COc1cc(CO)cc(I)c1O[C@H]1C=C(C(=O)NCCO)C[C@@H](NCC2CCCCC2)[C@@H]1O`
Response: Not met

Request: In plain terms: is recorded composite z-score at least 3 for `C=C(/C(=C/C[C@H](OC(=O)c1ccncc1)c1cccc(OCCO)c1)c1cnc2ccccc2c1)C(C)C` ?
Response: Not met

Request: Is composite z-score for COC(=O)C1=CC(CCCO)=CC(c2ccc(CN3CCCC3)cc2)N(Cc2cc3c(cc2Br)OCO3)C=C1C(=O)OC (centres undefined) at or above 3?
Response: Met

Request: Is composite z-score at least 3? Consider `O=C1N[C@@H](Cc2ccccc2)C(=O)N2[C@@H]1C[C@@H](C(=O)O)[C@H]2c1ccc(O)cc1`
Response: Not met

Request: Is composite z-score for CC(C)=CCCC(C)=CC(O)C1C=CC2C(=O)N(c3ccccc3)C(=O)C2N1Nc1ccccc1F (centres undefined) at or above 3?
Response: Not met

Request: Exam item: decide whether the reported composite z-score for `[N-]=[N+]=NC[C@H](Cc1ccccc1)NC(=O)c1ccccc1` is at least 3.
Response: Not met

Request: Hello, I need to know if `COCCOC(=O)N1C(=O)[C@@]2(c3cc(C#CCC(C(=O)OC)C(=O)OC)ccc31)[C@H](C(=O)NC[C@H](O)c1ccccc1)[C@H]1C(=O)O[C@H](c3ccccc3)[C@H](c3ccccc3)N1[C@@H]2c1ccc(O)cc1` has measured composite z-score not below 3. Thanks!
Response: Not met

Request: Is reported composite z-score greater than or equal to 3 here: `CO[C@H]1O[C@H](CO)[C@@H](OC(=O)Nc2ccc(C#N)cc2)[C@@H]2OC(=O)[C@H](Cc3cccc(Br)c3)C/C=C/C[C@@H](Cc3cccc(Br)c3)C(=O)O[C@@H]12`
Response: Not met

Request: Could you please find out whether `CCCNC(=O)[C@@]1(C)c2ccccc2C(=O)N(Cc2ccccc2)[C@H]1c1ccc(CO)cc1` has composite z-score that meets 3 or exceeds it?
Response: Not met

Request: API: above_or_equal(metric=composite z-score, cutoff=3) for item `CC(=O)NCCCC[C@@H]1NC(=O)[C@H]2C[C@@H](C(=O)NCCCCCNC(=O)CS)[C@@H](c3cccc(OCCO)c3)N2C1=O`
Response: Met
